Item-by-item account of Declined percentage of DPPH· scavenging activity after simulated GI digestion
testName: Stability to simulated gastrointestinal digestion (DPPH· scavenging activity)
Assay type: in vitro ADME
experimentalSetup: two-stage model: pepsin 120 min then trypsin 120 min; 0 to 240 min; peptide 2.0 mg/mL; read-out DPPH· scavenging activity
Where no end group is shown, it is not given here.

{"substance": "GEGQR [TCP8, Gly-Glu-Gly-Gln-Arg]", "value": "4.21%"}

If you can, please state the reported Declined percentage of DPPH· scavenging activity after simulated GI digestion value of GEQSN [TCP2, Gly-Glu-Gln-Ser-Asn] .
4.49%

If you can, please state the reported Declined percentage of DPPH· scavenging activity after simulated GI digestion value of GEEGD [TCP5, Gly-Glu-Glu-Gly-Asp] .
4.25%

If you can, please state the reported Declined percentage of DPPH· scavenging activity after simulated GI digestion value of GDRGD [TCP11, Gly-Asp-Arg-Gly-Asp] .
2.65%
